Every entry's value here was drawn from the CheMixHub drug solubility set.

assay: xn = mol fraction of the nth substance listed, in the solute-free solvent; settings: 303.15 K; x2 = 0.3
MEASURED_QUANTITY: solubility (g/100 g solution)

# annotated cases, reported solubility (g/100 g solution) shown
CCOc1ccccc1C(N)=O + CC#N + CC(C)O: 7.52
Cc1c(Br)c(=O)n(C2CCCC2)c2nc(Cl)ncc12 + CCOC(C)=O + CCO: 0.668
Cc1c(Br)c(=O)n(C2CCCC2)c2nc(Cl)ncc12 + C1CCOC1 + CCO: 3.6
Cl.N=C(N)NC(=N)N1CCOCC1 + O + CC(C)O: 3.56
Cl.NC(Cc1ccccc1)C(=O)OCc1ccccc1 (stereo not drawn) + CO + CC(C)=O: 1.83

a. Cc1ncc(CO)c(CO)c1O.Cl + O + CCCO
b. CCOc1ccccc1C(N)=O + CO + CC#N
[in] Select the item with the higher value of solubility (g/100 g solution) from the options a and b listed. Give the chosen item's label as your response.
[out] b
(b: 10.2, a: 2.05)

a. Cc1ncc(CO)c(CO)c1O.Cl + O + CC(C)O
b. CCOc1ccccc1C(N)=O + CCO + CC#N
c. O=C(NC(C(=O)O)c1ccccc1)OCc1ccccc1 (stereo not drawn) + CCO + O
[in] Order field: solubility (g/100 g solution) | Direction: descending (largest first) Put the labels in the requested order and list them out.
[out] b, c, a

a. Cc1ncc(CO)c(CO)c1O.Cl + O + CC#N
b. COC(=O)C(N)CS.Cl (stereo not drawn) + CCO + ClCCl
[in] Hi there, can you help? I need to know whether a or b has lower measured solubility (g/100 g solution). Give the chosen item's label as your response.
[out] a
